assay: The drug is tested on Bacteroides fragilis strain: HMW615 for biotransformation. The drug concentrations were measured before and after a 12-h incubation by liquid-chromatography-coupled mass spectrometry (LC–MS); settings: 2 µM
EXPERIMENTAL_ENDPOINT: Bacterial Biotransformation

# COMPOUND, EXPERIMENTAL_ENDPOINT, RESULT
rows = [
    ("COc1cc2nc(N3CCN(C(=O)C4COc5ccccc5O4)CC3)nc(N)c2cc1OC.CS(=O)(=O)O (stereo not given) [DOXAZOSIN MESYLATE]", "Bacterial Biotransformation", "Compound NOT metabolized"),
    ("CNCC[C@H](Oc1cccc2ccccc12)c1cccs1", "Bacterial Biotransformation", "Compound NOT metabolized"),
    ("N=C(N)NC(=O)Cc1c(Cl)cccc1Cl", "Bacterial Biotransformation", "Compound NOT metabolized"),
    ("CCCN(CCC)CCc1cccc2c1CC(=O)N2", "Bacterial Biotransformation", "Compound NOT metabolized"),
    ("CC#C[C@]1(O)CC[C@H]2[C@@H]3CCC4=CC(=O)CCC4=C3[C@@H](c3ccc(N(C)C)cc3)C[C@@]21C", "Bacterial Biotransformation", "Compound NOT metabolized"),
    ("CCOc1ccccc1OCCN[C@H](C)Cc1ccc(OC)c(S(N)(=O)=O)c1.Cl [TAMSULOSIN HYDROCHLORIDE]", "Bacterial Biotransformation", "Compound NOT metabolized"),
    ("O=C1[C@H](CC[C@H](O)c2ccc(F)cc2)[C@@H](c2ccc(O)cc2)N1c1ccc(F)cc1", "Bacterial Biotransformation", "Compound NOT metabolized"),
    ("CN1CC(=O)N2[C@H](c3ccc4c(c3)OCO4)c3[nH]c4ccccc4c3C[C@@H]2C1=O", "Bacterial Biotransformation", "Compound metabolized"),
]

Briefly, Bacterial Biotransformation measured for CNCCC(Oc1ccc(C(F)(F)F)cc1)c1ccccc1 (stereo not given) : Compound metabolized

Briefly, Bacterial Biotransformation measured for C[C@@H](c1ncncc1F)[C@](O)(Cn1cncn1)c1ccc(F)cc1F : Compound metabolized

Briefly, Bacterial Biotransformation measured for CNC(=C[N+](=O)[O-])NCCSCc1ccc(CN(C)C)o1 : Compound NOT metabolized

Briefly, Bacterial Biotransformation measured for CC(CN(C)C)CN1c2ccccc2CCc2ccccc21.O=C(O)/C=C\C(=O)O (stereo not given) [TRIMIPRAMINE MALEATE] : Compound NOT metabolized

Briefly, Bacterial Biotransformation measured for CCOC(=O)C1=C(C)NC(C)=C(C(=O)OC)C1c1cccc([N+](=O)[O-])c1 (stereo not given) : Compound metabolized

Briefly, Bacterial Biotransformation measured for C#C[C@]1(O)CC[C@H]2[C@@H]3CCC4=Cc5oncc5C[C@]4(C)[C@H]3CC[C@@]21C : Compound metabolized

Briefly, Bacterial Biotransformation measured for C#C[C@]1(OC(C)=O)CC[C@H]2[C@@H]3CCC4=C/C(=N/O)CC[C@@H]4[C@H]3CC[C@@]21CC [NORGESTIMATE] : Compound NOT metabolized

Briefly, Bacterial Biotransformation measured for COc1c2occc2cc2ccc(=O)oc12 : Compound metabolized

Briefly, Bacterial Biotransformation measured for CN1CCC[C@@H]1CCO[C@](C)(c1ccccc1)c1ccc(Cl)cc1.O=C(O)/C=C/C(=O)O [CLEMASTINE FUMARATE] : Compound NOT metabolized

Briefly, Bacterial Biotransformation measured for Cc1cc(C)cc(OCC2CNC(=O)O2)c1 (stereo not given) : Compound metabolized

Briefly, Bacterial Biotransformation measured for CC(NC(C)(C)C)C(=O)c1cccc(Cl)c1 (stereo not given) : Compound NOT metabolized

Briefly, Bacterial Biotransformation measured for CC(O)(CS(=O)(=O)c1ccc(F)cc1)C(=O)Nc1ccc(C#N)c(C(F)(F)F)c1 (stereo not given) [BICALUTAMIDE] : Compound metabolized

Briefly, Bacterial Biotransformation measured for Cc1nc2n(c(=O)c1CCN1CCC(c3noc4cc(F)ccc34)CC1)CCCC2O (stereo not given) : Compound NOT metabolized

Briefly, Bacterial Biotransformation measured for CCOc1ccc(NC(C)=O)cc1 : Compound NOT metabolized

Briefly, Bacterial Biotransformation measured for O=c1n(CCCN2CCN(c3cccc(Cl)c3)CC2)nc2ccccn12 : Compound NOT metabolized

Briefly, Bacterial Biotransformation measured for COc1ccc2c3c1O[C@H]1C[C@@H](O)C=C[C@@]31CCN(C)C2 : Compound metabolized

Briefly, Bacterial Biotransformation measured for CC(C)NCC(O)COc1ccc(CCOCC2CC2)cc1 (stereo not given) : Compound NOT metabolized

Briefly, Bacterial Biotransformation measured for Cc1ccccc1N1C(=O)c2cc(S(N)(=O)=O)c(Cl)cc2NC1C (stereo not given) : Compound NOT metabolized

Briefly, Bacterial Biotransformation measured for CN(C)CCC=C1c2ccccc2C=Cc2ccccc21 : Compound NOT metabolized

----------
Molecular target: Acylhydrolase (Bacteroides thetaiotaomicron)
Sequence (Q8AA96 whole entry): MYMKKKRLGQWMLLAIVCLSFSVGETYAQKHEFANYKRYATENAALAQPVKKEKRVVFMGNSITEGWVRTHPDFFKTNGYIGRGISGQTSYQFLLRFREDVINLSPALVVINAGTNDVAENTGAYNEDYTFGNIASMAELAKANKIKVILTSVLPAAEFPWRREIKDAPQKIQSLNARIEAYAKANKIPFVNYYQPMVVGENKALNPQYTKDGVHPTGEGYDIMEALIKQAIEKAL
Experiment: The drug is tested on Bacteroides thetaiotaomicron strain: VPI-5482 for biotransformation. The drug concentrations were measured before and after a 12-h incubation by liquid-chromatography-coupled mass spectrometry (LC–MS)
Assay type: ADME
Parameters: dose 2 uM
Settings: 2 µM
EXPERIMENTAL_ENDPOINT: Bacterial Biotransformation

Example entries and their recorded answers appear below.
# MOLECULE, TARGET_ENTITY, Bacterial Biotransformation
rows = [
    ("Nc1ccc(/N=N/c2ccccc2)c(N)n1", "Acylhydrolase (Bacteroides thetaiotaomicron)", "Compound NOT metabolized"),
    ("N#Cc1ccc2c(c1)N(CCCN1CCC(O)CC1)c1ccccc1S2", "Acylhydrolase (Bacteroides thetaiotaomicron)", "Compound NOT metabolized"),
    ("C#C[C@]1(OC(C)=O)CC[C@H]2[C@@H]3CCC4=CC(=O)CC[C@@H]4[C@H]3CC[C@@]21C [NORETHINDRONE ACETATE]", "Acylhydrolase (Bacteroides thetaiotaomicron)", "Compound NOT metabolized"),
    ("CCN(CC)C(=O)/C(C#N)=C/c1cc(O)c(O)c([N+](=O)[O-])c1", "Acylhydrolase (Bacteroides thetaiotaomicron)", "Compound NOT metabolized"),
    ("CC(=O)OCC(CCn1cnc2cnc(N)nc21)COC(C)=O", "Acylhydrolase (Bacteroides thetaiotaomicron)", "Compound metabolized"),
]

Hey, Acylhydrolase (Bacteroides thetaiotaomicron) data for CC(=O)Oc1ccc(C(c2ccc(OC(C)=O)cc2)c2ccccn2)cc1 : Bacterial Biotransformation came out at Compound metabolized

Hey, Acylhydrolase (Bacteroides thetaiotaomicron) data for C#C[C@]1(O)CC[C@H]2[C@@H]3CCC4=Cc5oncc5C[C@]4(C)[C@H]3CC[C@@]21C : Bacterial Biotransformation came out at Compound metabolized

Hey, Acylhydrolase (Bacteroides thetaiotaomicron) data for C[C@]12CCC(=O)C=C1[C@@H]1C[C@@H]1[C@H]1[C@@H]3[C@@H]4C[C@@H]4[C@@]4(CCC(=O)O4)[C@@]3(C)CC[C@@H]12 : Bacterial Biotransformation came out at Compound NOT metabolized

----------
conditions: bacteroides fragilis, 12 h, 2 µM
Description: The drug is tested on Bacteroides fragilis strain: NCTC 9343 for biotransformation. The drug concentrations were measured before and after a 12-h incubation by liquid-chromatography-coupled mass spectrometry (LC–MS)
EXPERIMENTAL_ENDPOINT: Bacterial Biotransformation

# COMPOUND, Bacterial Biotransformation
records = [
    ("OC(Cn1cncn1)(Cn1cncn1)c1ccc(F)cc1F", "Compound metabolized"),
    ("COc1ccc(CN2CCNCC2)c(OC)c1OC.Cl.Cl [TRIMETAZIDINE DIHYDROCHLORIDE]", "Compound metabolized"),
    ("CCC(C)n1ncn(-c2ccc(N3CCN(c4ccc(OCC5COC(Cn6cncn6)(c6ccc(Cl)cc6Cl)O5)cc4)CC3)cc2)c1=O (configuration not stated)", "Compound NOT metabolized"),
    ("O=C1CC2(CCCC2)CC(=O)N1CCCCN1CCN(c2ncccn2)CC1", "Compound NOT metabolized"),
]

Briefly, Bacterial Biotransformation measured for O=C(O)c1cc(/N=N/c2ccc(S(=O)(=O)Nc3ccccn3)cc2)ccc1O : Compound metabolized

Briefly, Bacterial Biotransformation measured for COc1cc2nc(N(C)CCCNC(=O)C3CCCO3)nc(N)c2cc1OC (configuration not stated) : Compound NOT metabolized

Briefly, Bacterial Biotransformation measured for CCCCC1=NC2(CCCC2)C(=O)N1Cc1ccc(-c2ccccc2-c2nnn[nH]2)cc1 : Compound metabolized

Briefly, Bacterial Biotransformation measured for COC(=O)Nc1nc2ccc(C(=O)c3ccccc3)cc2[nH]1 : Compound metabolized

Briefly, Bacterial Biotransformation measured for CCCCc1nc(Cl)c(CO)n1Cc1ccc(-c2ccccc2-c2nn[nH]n2)cc1 : Compound metabolized

----------
assay: The drug is tested on Bifidobacterium breve strain: DSM20213 for biotransformation. The drug concentrations were measured before and after a 12-h incubation by liquid-chromatography-coupled mass spectrometry (LC–MS); settings: 2 µM
EXPERIMENTAL_ENDPOINT: Bacterial Biotransformation

Example entries and their recorded answers appear below.
# MOLECULE, Bacterial Biotransformation
data = [
    ("CC(=O)Oc1ccc(C(c2ccc(OC(C)=O)cc2)c2ccccn2)cc1 [BISACODYL]", "Compound metabolized"),
    ("COc1ccc(CN2CCNCC2)c(OC)c1OC.Cl.Cl [TRIMETAZIDINE DIHYDROCHLORIDE]", "Compound NOT metabolized"),
    ("CCOc1ccc2nc(S(N)(=O)=O)sc2c1 [ETHOXZOLAMIDE]", "Compound metabolized"),
    ("CC(C)(Oc1ccc(CCNC(=O)c2ccc(Cl)cc2)cc1)C(=O)O [BEZAFIBRATE]", "Compound metabolized"),
    ("O=C(O)c1cc(/N=N/c2ccc(S(=O)(=O)Nc3ccccn3)cc2)ccc1O [SULFASALAZINE]", "Compound metabolized"),
]

Briefly, Bacterial Biotransformation measured for COc1ccc2c(c1OC)C(=O)O[C@@H]2[C@H]1c2c(cc3c(c2OC)OCO3)CCN1C [NOSCAPINE] : Compound metabolized

Briefly, Bacterial Biotransformation measured for CN1CCN(C2=Nc3ccccc3Oc3ccc(Cl)cc32)CC1.O=C(O)CCC(=O)O [LOXAPINE SUCCINATE] : Compound NOT metabolized

Briefly, Bacterial Biotransformation measured for CC(CN(C)C)CN1c2ccccc2CCc2ccccc21.O=C(O)/C=C\C(=O)O (configuration not stated) [TRIMIPRAMINE MALEATE] : Compound NOT metabolized

Briefly, Bacterial Biotransformation measured for CCN(CC)CCCC(C)Nc1c2ccc(Cl)cc2nc2ccc(OC)cc12 (configuration not stated) [QUINACRINE] : Compound NOT metabolized

Briefly, Bacterial Biotransformation measured for CC#C[C@]1(O)CC[C@H]2[C@@H]3CCC4=CC(=O)CCC4=C3[C@@H](c3ccc(N(C)C)cc3)C[C@@]21C [MIFEPRISTONE] : Compound metabolized

Briefly, Bacterial Biotransformation measured for CO[C@]12C[C@@H](COC(=O)c3cncc(Br)c3)CN(C)[C@@H]1Cc1cn(C)c3cccc2c13 [NICERGOLINE] : Compound NOT metabolized

Briefly, Bacterial Biotransformation measured for Cc1ccccc1N1C(=O)c2cc(S(N)(=O)=O)c(Cl)cc2NC1C (configuration not stated) [METOLAZONE] : Compound NOT metabolized

Briefly, Bacterial Biotransformation measured for COCCCC/C(=N\OCCN)c1ccc(C(F)(F)F)cc1.O=C(O)/C=C\C(=O)O [FLUVOXAMINE MALEATE] : Compound NOT metabolized

Briefly, Bacterial Biotransformation measured for CN1C(=O)CC(C)(c2ccccc2)C1=O (configuration not stated) [METHSUXIMIDE] : Compound NOT metabolized

Briefly, Bacterial Biotransformation measured for CCN(C)C(=O)Oc1cccc([C@H](C)N(C)C)c1.O=C(O)C(O)C(O)C(=O)O [RIVASTIGMINE TARTRATE] : Compound NOT metabolized

Briefly, Bacterial Biotransformation measured for CCCc1nc(C(C)(C)O)c(C(=O)OCc2oc(=O)oc2C)n1Cc1ccc(-c2ccccc2-c2nnn[nH]2)cc1 [OLMESARTAN MEDOXOMIL] : Compound metabolized

Briefly, Bacterial Biotransformation measured for CC(C)(C#N)c1cc(Cn2cncn2)cc(C(C)(C)C#N)c1 [ANASTROZOLE] : Compound NOT metabolized
